- METHOD: A CellTox Green Cytotoxicity Assay to monitor cytotoxicity in HepG2 cells - 40 hour (AID 1224879); note: nearly all actives have a fitted effect of over 40% in size
- TEST SETTINGS: CellTox Green fluorescence; series mostly up to 76.8 µM
Results filed as inconclusive are left out. Active and inactive are the calls of the source. Calls come from the whole dose curve; as a rule, active = well fitted activation curve with a large enough effect in the repeat runs; inconclusive = weak or mixed curves; inactive = flat fitted curve, though single readings scatter.
Outcome codes: t for active, f for inactive

>>> class_name("C#CCN(C)Cc1ccccc1")
"f"
>>> class_name("Nc1cc([N+](=O)[O-])ccc1O")
"f"
>>> class_name("CC(O)COCC(C)O (centres undefined)")
"f"
>>> class_name("CCCCCCCCC/C=C/CC1CC(=O)OC1=O (centres undefined)")
"f"
>>> class_name("C=C(C)C(=O)Nc1ccc(Cl)c(Cl)c1")
"f"
>>> class_name("Oc1cccc2ccccc12")
"f"
>>> class_name("C#C[C@]1(O)CC[C@H]2[C@@H]3CCC4=CC(=O)CC[C@@H]4[C@H]3CC[C@@]21C")
"f"
>>> class_name("Cc1ccc(N(C)C)cc1")
"f"
>>> class_name("Cc1cccnc1")
"f"
>>> class_name("COCCCOc1ccnc(CS(=O)c2nc3ccccc3[nH]2)c1C (centres undefined)")
"f"
>>> class_name("CC(C)c1ccc(S(=O)(=O)O)cc1")
"f"
>>> class_name("O=c1[nH]nnc2ccccc12")
"f"
>>> class_name("CC(c1cc2ccccc2s1)N(O)C(N)=O (centres undefined)")
"f"
>>> class_name("Cc1cnc(C(=O)NCCc2ccc(S(=O)(=O)NC(=O)NC3CCCCC3)cc2)cn1")
"f"
>>> class_name("CC1=CCC2CC1C2(C)C (centres undefined)")
"f"
>>> class_name("OCCOCCN1CCN(C2=Nc3ccccc3Sc3ccccc32)CC1")
"f"
>>> class_name("O=C(O)CCCCCCCCCCC(=O)O")
"f"
>>> class_name("CCC(O)OCCCOC (centres undefined)")
"f"
>>> class_name("O=C(O)c1cc(=O)c2c(OCC(O)COc3cccc4oc(C(=O)O)cc(=O)c34)cccc2o1")
"f"
>>> class_name("CC1CCC(C(C)C)C(O)C1 (centres undefined)")
"f"
>>> class_name("O=[N+]([O-])c1ccc(/C=C/c2ccc([N+](=O)[O-])cc2S(=O)(=O)O)c(S(=O)(=O)O)c1")
"f"
>>> class_name("CCCSc1ccc2nc(NC(=O)OC)[nH]c2c1")
"t"
>>> class_name("c1ccc2c(c1)ccc1ccccc12")
"f"
>>> class_name("CC(=O)Nc1cccc(O)c1")
"f"
>>> class_name("CCCCC(CC)COC(=O)C(C#N)=C(c1ccccc1)c1ccccc1 (centres undefined)")
"f"
>>> class_name("O=C1CCC(N2C(=O)c3ccccc3C2=O)C(=O)N1 (centres undefined)")
"f"
>>> class_name("OCc1cccnc1")
"f"
>>> class_name("O=c1[nH]c(=O)n([C@H]2C[C@H](O)[C@@H](CO)O2)cc1Br")
"f"
>>> class_name("CC(=O)Nc1ccccc1")
"f"

----------
- METHOD: qHTS assay for small molecule disruptors of the mitochondrial membrane potential - cell viability (AID 720634); note: nearly all actives have a fitted effect of over 20% in size
- TEST SETTINGS: HepG2 viability, ATP luminescence (CellTiter-Glo), 1 h; series mostly up to 83.2 µM
- Protocol: U.S. Tox21 Program National Center for Advancing Translational Sciences [NCATS] NIH Chemical Genomics Center [NCGC] U.S. Environmental Protection Agency [EPA] National Institutes of Environmental Health Sciences [NIEHS] National Toxicology Program [NTP] […] Measuring MMP in living cells is commonly used to assess the effect of chemicals on mitochondrial function; decreases in MMP can be detected using lipophilic cationic fluorescent dyes. […] The cytotoxicity was measured in the same assay well of MMP assay. […]
Records with an inconclusive call do not appear. Active and inactive are the calls of the source. Calls follow the shape of the full dose curve.
Classes used: True for active, False for inactive

>>> class_name("O=C(O)c1ccccc1C(c1ccc(O)cc1)c1ccc(O)cc1")
"False"
>>> class_name("CCCCCCOCCO")
"False"
>>> class_name("CCCCCCCCC/C=C/CC1CC(=O)OC1=O (stereo unspecified)")
"False"
>>> class_name("CC1=C(C)S(=O)(=O)CCS1(=O)=O")
"False"
>>> class_name("O=C(O)[C@H](O)[C@@H](O)[C@H](O)[C@H](O)CO")
"False"
>>> class_name("CCCCCC/C(C=O)=C\\c1ccccc1")
"False"
>>> class_name("C=CCOC(=O)c1ccccc1C(=O)OCC=C")
"False"
>>> class_name("CN(C)CCCN")
"False"
>>> class_name("CCc1ccc(CCOc2ccc(CC3SC(=O)NC3=O)cc2)nc1 (stereo unspecified)")
"False"
>>> class_name("O=C(O)CC(C(=O)O)C(CC(=O)O)C(=O)O (stereo unspecified)")
"False"
>>> class_name("C[C@H]1C[C@H]2[C@@H]3CCC4=CC(=O)C=C[C@]4(C)[C@@]3(F)[C@@H](O)C[C@]2(C)[C@@]1(O)C(=O)CO")
"False"
>>> class_name("CCCCCCCCCC")
"False"
>>> class_name("CN(C)CCOCCN(C)C")
"False"
>>> class_name("Fc1ccc(Br)cc1")
"False"
>>> class_name("CCCCC(CC)CO (stereo unspecified)")
"False"
>>> class_name("c1ccc(OCCOc2ccccc2)cc1")
"False"
>>> class_name("OCC(CO)(CBr)CBr")
"False"
>>> class_name("CCCCC(CC)COC(=O)C(C#N)=C(c1ccccc1)c1ccccc1 (stereo unspecified)")
"True"
>>> class_name("FC(F)(F)c1ccc(Cl)c(Cl)c1")
"False"
>>> class_name("COc1ccc(Nc2ccccc2)c(C)c1")
"False"
>>> class_name("CC(=O)Nc1cccc(O)c1")
"False"
>>> class_name("Cc1occc(=O)c1O")
"False"
>>> class_name("CCC(O)OC(O)CC (stereo unspecified)")
"False"
>>> class_name("O=C(Oc1ccccc1)c1ccccc1")
"False"
>>> class_name("O=c1[nH]c(=O)n([C@H]2CCCO2)cc1F")
"False"
>>> class_name("CCCCCCCCCCCCCCO")
"False"
>>> class_name("CN(C)CCC(c1ccc(Cl)cc1)c1ccccn1 (stereo unspecified)")
"False"
>>> class_name("CC1CCC2CC1C2(C)C (stereo unspecified)")
"False"
>>> class_name("CCc1cccc(C)c1N")
"False"
>>> class_name("CCCCC(CC)COC(=O)CCCCC(=O)OCC(CC)CCCC (stereo unspecified)")
"False"
>>> class_name("NNc1nncc2ccccc12")
"False"
>>> class_name("CCCCCCCCCCCCS")
"False"
>>> class_name("O=C(O)c1ccc(C(=O)O)cc1")
"False"
>>> class_name("C=C(C)C(=O)O[C@H]1C[C@@H]2CC[C@@]1(C)C2(C)C")
"False"
>>> class_name("CSCCC=O")
"False"
>>> class_name("CCCCCCCCCCCCOCCO")
"False"
>>> class_name("O=C(O)c1ccc2c(c1)C(=O)OC2=O")
"False"
>>> class_name("Cc1cnc(C(=O)NCCc2ccc(S(=O)(=O)NC(=O)NC3CCCCC3)cc2)cn1")
"False"
>>> class_name("c1c[nH]cn1")
"False"
>>> class_name("c1ccc2c(c1)ccc1ccccc12")
"False"
>>> class_name("CC(c1cc2ccccc2s1)N(O)C(N)=O (stereo unspecified)")
"True"
>>> class_name("CCCCC(CC)COC(=O)CS (stereo unspecified)")
"False"
>>> class_name("COc1ccc(NC(C)=O)cc1N")
"False"
>>> class_name("O=S(=O)(O)c1ccc2ccccc2c1")
"False"
>>> class_name("CC(C)CC(=O)CC(C)C")
"False"
>>> class_name("O=P(OC(CCl)CCl)(OC(CCl)CCl)OC(CCl)CCl")
"False"
>>> class_name("O=S1(=O)CC=CC1")
"False"
>>> class_name("Cc1cccnc1")
"False"
>>> class_name("O=C(CC(C(=O)OC1CCCCC1)S(=O)(=O)O)OC1CCCCC1 (stereo unspecified)")
"False"
>>> class_name("CCCC(C)=O")
"False"
>>> class_name("CC(=O)CC(=O)Nc1ccccc1C")
"False"
>>> class_name("CCCCCC(N)=O")
"False"
>>> class_name("CC(=O)c1ccccc1")
"False"
>>> class_name("Cc1ccc2oc(=O)ccc2c1")
"False"
>>> class_name("OCCOCCOCCO")
"False"
>>> class_name("COCCCOc1ccnc(CS(=O)c2nc3ccccc3[nH]2)c1C (stereo unspecified)")
"False"
>>> class_name("COS(C)(=O)=O")
"False"
>>> class_name("O=C(OCCOCCOC(=O)c1ccccc1)c1ccccc1")
"False"
>>> class_name("CC(=O)CC(=O)Nc1ccccc1")
"False"
>>> class_name("C=C(C)C(=O)OCCOCCOCCOC(=O)C(=C)C")
"False"
>>> class_name("CCOC(=O)NNc1nncc2ccccc12")
"False"

The measured values listed here are drawn from PubChem BioAssay (Tox21).
